Target: SARS-COV-2 RBD extracellular domain expressed with a C-terminal mouse IgG2a Fc (SARS-CoV-2)
Test Method Notes: Biacore SPR, mAb captured on anti-hFc, 25 C
Measured log10(t½) of individual entries
Remember, log10 of t½, in h.

mAb14234 (antibody, V domains shown) VH: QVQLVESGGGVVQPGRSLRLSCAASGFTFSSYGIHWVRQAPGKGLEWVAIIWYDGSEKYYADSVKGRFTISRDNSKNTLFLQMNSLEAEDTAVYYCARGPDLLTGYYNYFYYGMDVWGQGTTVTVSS VL: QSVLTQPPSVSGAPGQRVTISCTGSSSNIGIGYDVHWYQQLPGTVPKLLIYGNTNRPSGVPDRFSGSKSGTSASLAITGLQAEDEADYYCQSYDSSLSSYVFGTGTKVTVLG
0.20

Recorded log10(t½) for mAb14284 (antibody, V domains shown) VH: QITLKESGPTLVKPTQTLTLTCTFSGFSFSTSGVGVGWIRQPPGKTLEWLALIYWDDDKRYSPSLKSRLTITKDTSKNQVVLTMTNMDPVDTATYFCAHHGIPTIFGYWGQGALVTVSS VL: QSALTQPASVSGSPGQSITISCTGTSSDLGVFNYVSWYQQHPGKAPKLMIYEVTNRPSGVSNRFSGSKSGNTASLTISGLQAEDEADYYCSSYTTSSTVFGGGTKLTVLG , please?
0.96

Entry mAb15165 (antibody, V domains shown) VH: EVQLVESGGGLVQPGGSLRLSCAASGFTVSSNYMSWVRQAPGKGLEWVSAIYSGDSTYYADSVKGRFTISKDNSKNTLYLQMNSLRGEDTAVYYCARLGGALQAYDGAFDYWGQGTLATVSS VL: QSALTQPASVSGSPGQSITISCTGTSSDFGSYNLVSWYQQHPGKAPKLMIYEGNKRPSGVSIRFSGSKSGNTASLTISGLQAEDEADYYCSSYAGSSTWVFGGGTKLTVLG has what log10(t½)?
0.70

Entry mAb13458 (antibody, V domains shown) VH: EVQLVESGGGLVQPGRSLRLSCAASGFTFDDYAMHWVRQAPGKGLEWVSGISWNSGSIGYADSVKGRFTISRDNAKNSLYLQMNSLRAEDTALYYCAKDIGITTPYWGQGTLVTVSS VL: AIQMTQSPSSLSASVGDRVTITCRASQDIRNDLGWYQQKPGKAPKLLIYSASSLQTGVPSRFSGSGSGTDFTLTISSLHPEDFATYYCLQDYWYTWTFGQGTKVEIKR has what log10(t½)?
0.41

Which measured log10(t½) value corresponds to mAb15162 (antibody, V domains shown) VH: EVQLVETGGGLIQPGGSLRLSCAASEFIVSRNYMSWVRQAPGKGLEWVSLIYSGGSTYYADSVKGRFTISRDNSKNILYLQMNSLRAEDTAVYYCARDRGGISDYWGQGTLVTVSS VL: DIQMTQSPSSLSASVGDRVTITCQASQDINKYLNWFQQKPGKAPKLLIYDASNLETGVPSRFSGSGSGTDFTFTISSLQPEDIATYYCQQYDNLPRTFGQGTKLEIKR ?
-0.08

Quick one: log10(t½) of mAb15151 (antibody, V domains shown) VH: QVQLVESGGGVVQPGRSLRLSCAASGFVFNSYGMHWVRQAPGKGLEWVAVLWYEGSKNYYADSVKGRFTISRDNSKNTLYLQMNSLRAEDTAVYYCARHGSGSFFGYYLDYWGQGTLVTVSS VL: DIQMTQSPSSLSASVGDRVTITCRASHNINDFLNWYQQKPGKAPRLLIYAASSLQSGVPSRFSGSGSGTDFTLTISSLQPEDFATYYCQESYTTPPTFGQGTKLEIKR ?
0.79
